z-score of subpopulation abundance for assorted compounds
Test system: Saccharomyces cerevisiae BY4741 SeMeCo community
TEST: z-score of subpopulation abundance vs DMSO median, subpopulation auxotrophic for HUM; higher = larger share of this subpopulation than in DMSO controls
ASSAY_SETUP: 10 µM; 24 h; SM minimal medium; subpopulation (auxotrophy): HUM
Counter-ions that a name gives are not always drawn.
QUANTITY_MEASURED: z-score of subpopulation abundance

{"columns": ["COMPOUND", "RESULT"],
 "data": [
  ["CC(=O)Oc1ccc(C(=C2CCCCC2)c2ccc(OC(C)=O)cc2)cc1", -0.46],
  ["CN1CCC(=C2c3ccccc3CCc3sccc32)CC1 [Pizotifen Malate]", -0.14],
  ["Cn1nnc(-c2ccc(-c3ccc(N4C[C@H](COP(=O)(O)O)OC4=O)cc3F)cn2)n1 [Tedizolid Phosphate]", -0.98],
  ["CC(=O)NS(=O)(=O)c1ccc(N)cc1 [Sulfacetamide Sodium]", 0.62],
  ["CC(C)(C)C(=O)OCOC(=O)[C@@H]1N2C(=O)[C@@H](/N=C/N3CCCCCC3)[C@H]2SC1(C)C [Pivmecillinam hydrochloride]", -0.16],
  ["Cc1nc(C)c(Cl)c(O)c1Cl", -0.08],
  ["CC[C@@H]1/C=C(\\C)C[C@H](C)C[C@H](OC)[C@H]2O[C@@](O)(C(=O)C(=O)N3CCCC[C@H]3C(=O)O[C@H](/C(C)=C/[C@@H]3CC[C@H](Cl)[C@H](OC)C3)[C@H](C)[C@@H](O)CC1=O)[C@H](C)C[C@@H]2OC", 0.94]
]}
